Experiment: Metabolite profiling and identification in plasma, urine and feces (part A)
Format: in vivo, human healthy male volunteers
Conditions: male, human, in vivo, apparent t½ of metabolite in plasma, median
quantity_name: half-life (h)

>>> numeric_result("CN1CCC(COc2cnc(-c3cccc(Cn4nc(-c5cccc(C#N)c5)ccc4=O)c3)nc2)CC1=O (stereo not shown) [M506]")
92

###

Test: Metabolite profiling and identification in plasma, urine and feces (part A)
Format: in vivo, human healthy male volunteers
Settings: male, human, in vivo, po, tmax of metabolite in plasma, median
quantity_name: tmax (h)

>>> numeric_result("CN1CCC(COc2cnc(-c3cccc(Cn4nc(-c5cccc(C#N)c5)ccc4=O)c3)nc2)CC1=O (stereo not shown)")
24

###

Assay: Oral and IV tracer PK and absolute bioavailability (part B)
Type: in vivo, human healthy male volunteers
Conditions: male, human, in vivo, 500 mg, geometric mean; 500 mg phase II tablet formulation vs IV tracer; n=6; read-out: absolute bioavailability
Experimental: Participants were hospitalized from day 1 to day 7 of the study, and further assessed on days 9, 11, and 14 (study end). In brief, the isotopically labeled internal standard [^2H]-MSC2156119A was added to 20 μL K2-ethylenediaminetetraacetic acid (EDTA) plasma. […] The lower limit of quantification (LLOQ) was 5.00 ng/mL, and the calibration standard responses were linear over the range between 5.00 and 2500 ng/mL using a weighted (1/x^2) linear regression. […]
quantity_name: bioavailability (%)

>>> numeric_result("CN1CCC(COc2cnc(-c3cccc(Cn4nc(-c5cccc(C#N)c5)ccc4=O)c3)nc2)CC1")
72

###

Experiment: Unbound fraction of tepotinib in plasma, ex vivo equilibrium dialysis (part A)
Assay type: in vitro ADME, human healthy male volunteers
Details: male, human, 498 mg, pH 7.4, ex vivo, 4–24 h after oral administration, read-out: highest free fraction observed in individual participants
quantity_name: fraction unbound at 18 h

>>> result("CN1CCC(COc2cnc(-c3cccc(Cn4nc(-c5cccc(C#N)c5)ccc4=O)c3)nc2)CC1")
0.0325

###

Test: Oral and IV tracer PK and absolute bioavailability (part B)
Type: in vivo, human healthy male volunteers
Conditions: male, human, in vivo; single oral 500 mg tablet; geometric mean (geometric CV%), min–max; read-out: Vz/f
quantity_name: Vd/F (L)

>>> numeric_result("CN1CCC(COc2cnc(-c3cccc(Cn4nc(-c5cccc(C#N)c5)ccc4=O)c3)nc2)CC1 [Tepotinib]")
726

###

Assay: Oral and IV tracer PK and absolute bioavailability (part B)
Format: in vivo, human healthy male volunteers
Settings: male, human, in vivo; summary statement in the discussion
quantity_name: half-life (h)

>>> numeric_result("CN1CCC(COc2cnc(-c3cccc(Cn4nc(-c5cccc(C#N)c5)ccc4=O)c3)nc2)CC1")
30

###

Test: Metabolite profiling and identification in plasma, urine and feces (part A)
Type: in vivo, human healthy male volunteers
Details: male, human, in vivo, po, tmax of metabolite in plasma, range
quantity_name: tmax

>>> result("CN1CCC(COc2cnc(-c3cccc(Cn4nc(-c5cccc(C#N)c5)ccc4=O)c3)nc2)CC1=O (stereo not shown) [M506]")
"24 to 60 h"
